target: HRgpA-6H (Porphyromonas gingivalis) (UniProt P28784); assay: ELISA, coated HRgpA-6H
measurement_kind: OD450 nm
Answer as a number with no unit attached.

Lab note: measured OD450 nm of KB001 mouse Fab VH L63F (Fab, V domains shown) VH: EVQLKQSGPGLVAPSQSLSITCTVSGFSLSIYSVHWVRQPPGKGLEWLGMIWGGGSSDYNSAFKSRLSISKDNSKSQVFLKMNSLQTDDTAMYYCARNGNFYAMDYWGQGTSVTVSS VL: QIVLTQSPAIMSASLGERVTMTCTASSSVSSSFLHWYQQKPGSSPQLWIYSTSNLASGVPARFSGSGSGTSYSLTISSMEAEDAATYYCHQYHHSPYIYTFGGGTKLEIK was 0.743

Lab note: measured OD450 nm of KB001 mouse Fab VH S30F (Fab, V domains shown) VH: EVQLKQSGPGLVAPSQSLSITCTVSGFSLFIYSVHWVRQPPGKGLEWLGMIWGGGSSDYNSALKSRLSISKDNSKSQVFLKMNSLQTDDTAMYYCARNGNFYAMDYWGQGTSVTVSS VL: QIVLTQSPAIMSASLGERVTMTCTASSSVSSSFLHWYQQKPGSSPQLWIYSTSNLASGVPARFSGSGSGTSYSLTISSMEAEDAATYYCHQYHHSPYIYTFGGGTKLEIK was 0.438

Lab note: measured OD450 nm of KB001 mouse Fab VH S56M (Fab, V domains shown) VH: EVQLKQSGPGLVAPSQSLSITCTVSGFSLSIYSVHWVRQPPGKGLEWLGMIWGGGMSDYNSALKSRLSISKDNSKSQVFLKMNSLQTDDTAMYYCARNGNFYAMDYWGQGTSVTVSS VL: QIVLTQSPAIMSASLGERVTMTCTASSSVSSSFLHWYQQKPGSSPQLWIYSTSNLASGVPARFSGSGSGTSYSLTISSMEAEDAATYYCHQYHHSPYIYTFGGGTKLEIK was 0.809
